# tested system: HIV-1 protease (Human immunodeficiency virus type 1 group M subtype B, UniProt P04585)
# experimental protocol: biochemical
# study conditions: read-out: HIV-1 Protease % Inhib, dose 0.370 uM
readout type: inhibition at 0.37 µM (%)
Use % as the unit, but write only the number.

Reference set (5 entries):
CCCC1CCCCc2c1oc(=O)c(C(c1ccccc1)C1CC1)c2O (stereo not shown) : 57
O=c1oc2c(c(O)c1C(c1cccc(NS(=O)(=O)c3cccc(NS(=O)(=O)CCCCl)c3)c1)C1CC1)CCCCCC2 (stereo not shown) : 96.5
CC(C)C(c1cccc(NS(=O)(=O)c2cccc3cccnc23)c1)c1c(O)c2c(oc1=O)CCCCCC2 (stereo not shown) : 88
O=c1oc2c(c(O)c1C(c1cccc(NS(=O)(=O)c3cccc4cccnc34)c1)C1CC1)CCCCCC2 (stereo not shown) : 89.9
O=c1oc2c(c(O)c1[C@H](c1cccc(NS(=O)(=O)c3ccc(S(=O)(=O)c4ccccc4)s3)c1)C1CC1)CCCCCC2 : 85.3

Assay HIV-1 protease (Human immunodeficiency virus type 1 group M subtype B, UniProt P04585), sample CC(C)C(c1cccc(NS(=O)(=O)c2cn(C)cn2)c1)c1c(O)c2c(oc1=O)CCCCCC2 (stereo not shown) , inhibition at 0.37 µM read: 121

Assay HIV-1 protease (Human immunodeficiency virus type 1 group M subtype B, UniProt P04585), sample CC(C)CCC1CCCCc2c1oc(=O)c(C(c1ccccc1)C1CC1)c2O (stereo not shown) , inhibition at 0.37 µM read: 18

Assay HIV-1 protease (Human immunodeficiency virus type 1 group M subtype B, UniProt P04585), sample CCCCC1CCCCCc2c1oc(=O)c(C(c1ccccc1)C1CC1)c2O (stereo not shown) , inhibition at 0.37 µM read: 67.8

Assay HIV-1 protease (Human immunodeficiency virus type 1 group M subtype B, UniProt P04585), sample C[C@H](NC(=O)OC(C)(C)C)C(=O)Nc1cccc(C(c2c(O)c3c(oc2=O)CCCCCC3)C2CC2)c1 (stereo partly shown) , inhibition at 0.37 µM read: 91.9

Assay HIV-1 protease (Human immunodeficiency virus type 1 group M subtype B, UniProt P04585), sample O=c1oc2c(c(O)c1C(c1cccc(NS(=O)(=O)c3ccccc3C(F)(F)F)c1)C1CC1)CCCCCC2 (stereo not shown) , inhibition at 0.37 µM read: 62.4

---

# tested system: HIV-1 protease (Human immunodeficiency virus type 1 group M subtype B)
# experimental protocol: biochemical
# study conditions: dose 30.000 uM; read-out: HIV-1 Protease % Inhib
Think of 90% as a floor: if inhibition at 30 µM stands on it or above, it is true; beneath it, false.

Here are 6 molecules together with their reported answers.
Cc1cccc(Cl)c1S(=O)(=O)Nc1cccc(C(c2c(O)c3c(oc2=O)CCCCCC3)C2CC2)c1 (stereo not shown) : false
O=c1oc2c(c(O)c1C(c1ccc(NS(=O)(=O)c3cccc([N+](=O)[O-])c3)cc1)C1CC1)CCCCCC2 (stereo not shown) : true
CC(C)(C)OC(=O)NCC(=O)N(Cc1ccccc1)c1cccc(C(c2c(O)c3c(oc2=O)CCCCCC3)C2CC2)c1 (stereo not shown) : false
Cn1cnc(S(=O)(=O)Nc2ccc(C(c3c(O)c4c(oc3=O)CCCCCC4)C3CC3)cc2)c1 (stereo not shown) : false
O=c1oc2c(c(O)c1C(c1cccc(N(Cc3ccccc3)S(=O)(=O)c3ccccc3)c1)C1CC1)CCCCCC2 (stereo not shown) : false
CC(C)(O)C1CCCCCc2c1oc(=O)c(C(c1ccccc1)C1CC1)c2O (stereo not shown) : true

-- ask inhibition at 30 µM >= 90% for COCCOCCC1CCCCc2c1oc(=O)c(C(c1ccccc1)C1CC1)c2O (stereo not shown) ?
-- reply true

-- ask inhibition at 30 µM >= 90% for CCNC(=S)Nc1cccc(C(c2c(O)c3c(oc2=O)CCCCCC3)C2CC2)c1 (stereo not shown) ?
-- reply true

---

# tested system: HIV-1 protease (Human immunodeficiency virus type 1 group M subtype B, UniProt P04585)
# experimental protocol: biochemical
# study conditions: read-out: HIV-1 FITC KI
readout type: Ki (nM)
Use nM as the unit, but write only the number.

O=c1oc2c(c(O)c1C(c1cccc(NS(=O)(=O)c3cccc(NS(=O)(=O)c4ccccc4)c3)c1)C1CC1)CCCCCC2 (stereo not shown) : 6.6
O=c1oc2c(c(O)c1C(c1ccccc1)C1CC1)CCCCCC2C(O)C1CC1 (stereo not shown) : 37

The compound listed as O=c1oc2c(c(O)c1C(c1cccc(NS(=O)(=O)c3cc(S(=O)(=O)c4ccccc4)cs3)c1)C1CC1)CCCCCC2 (stereo not shown) shows Ki equal to 2.5

The compound listed as O=c1oc2c(c(O)c1C(c1ccccc1)C1CC1)CCCCCC2CC1CCCO1 (single isomer, unassigned) [Example 170] shows Ki equal to 31

---

# tested system: HIV-1 protease (Human immunodeficiency virus type 1 group M subtype B)
# experimental protocol: biochemical
# study conditions: read-out: HIV-1 Protease % Inhib, dose 10.000 uM
Listed here: items and their measured inhibition at 10 µM.
Use % as the unit, but write only the number.

Reference set (5 entries):
CCCC(c1cccc(NS(=O)(=O)c2cn(C)cn2)c1)c1c(O)c2c(oc1=O)CCCCCC2 (stereo not shown) : 105
CC(C)C(c1cccc(NS(=O)(=O)c2ccc(C#N)cc2)c1)c1c(O)c2c(oc1=O)CCCCCC2 (stereo not shown) : 109
CCCC(=O)Nc1cccc(C(c2c(O)c3c(oc2=O)CCCCCC3)C2CC2)c1 (stereo not shown) : 104
O=C(CCn1ccc2ccccc21)Nc1cccc(C(c2c(O)c3ccccc3oc2=O)C2CC2)c1 (stereo not shown) : 94.7
O=c1oc2c(c(O)c1[C@H](c1cccc(NS(=O)(=O)c3ccc(S(=O)(=O)c4ccccc4)s3)c1)C1CC1)CCCCCC2 : 106

The compound listed as O=c1oc2c(c(O)c1[C@H](c1cccc(NS(=O)(=O)c3ccc(F)cc3)c1)C1CC1)CCCCCC2 shows inhibition at 10 µM equal to 116

The compound listed as CC(C)CC1CCCCCc2c1oc(=O)c(C(c1ccccc1)C1CC1)c2O (stereo not shown) shows inhibition at 10 µM equal to 116

The compound listed as COCC1CCCCCc2c1oc(=O)c(C(c1ccccc1)C1CC1)c2O (stereo not shown) shows inhibition at 10 µM equal to 104

The compound listed as O=c1oc2c(c(O)c1C(c1cccc(NS(=O)(=O)c3cc(S(=O)(=O)c4ccccc4)cs3)c1)C1CC1)CCCCCC2 (stereo not shown) shows inhibition at 10 µM equal to 101

The compound listed as CCC(c1ccccc1OC)c1c(O)c2ccccc2oc1=O (stereo not shown) shows inhibition at 10 µM equal to 10.2

The compound listed as O=c1oc2c(c(O)c1C(c1cccc(NS(=O)(=O)c3ccc(S(=O)(=O)c4ccccc4)s3)c1)C1CC1)CCCCCC2 (stereo not shown) shows inhibition at 10 µM equal to 104

The compound listed as O=c1oc2c(c(O)c1C(c1cccc(NS(=O)(=O)c3cccc(Br)c3)c1)C1CC1)CCCCCC2 (stereo not shown) shows inhibition at 10 µM equal to 118

The compound listed as CCC(c1cccc(NC(=O)C(C)NC(=O)OC(C)(C)C)c1)c1c(O)c2ccccc2oc1=O (stereo not shown) shows inhibition at 10 µM equal to 90.8

---

Listed here: items and their measured inhibition at 30 µM.
# tested system: HIV-1 protease (Human immunodeficiency virus type 1 group M subtype B, UniProt P04585)
# experimental protocol: biochemical
# study conditions: read-out: HIV-1 Protease % Inhib, dose 30.000 uM
Use % as the unit, but write only the number.

Reference set (5 entries):
CCCC(c1cccc(NS(=O)(=O)c2ccc(Cl)cc2)c1)c1c(O)c2c(oc1=O)CCCCCC2 (centres unmarked) [Example 377] : 94.7
O=C(Nc1cccc(C(c2c(O)c3c(oc2=O)CCCCCC3)C2CC2)c1)c1ccccc1 (centres unmarked) [Example 211] : 101
O=c1oc2c(c(O)c1C(c1cccc(NS(=O)(=O)c3ccc(S(=O)(=O)c4ccccc4)s3)c1)C1CC1)CCCCCC2 (centres unmarked) [Example 299] : 98.4
O=c1oc2c(c(O)c1C(c1cccc(NS(=O)(=O)c3ccc(O)cc3)c1)C1CC1)CCCCCC2 (centres unmarked) [Example 407] : 113
CCCC(c1cccc(N)c1)c1c(O)c2c(oc1=O)CCCCCC2 (centres unmarked) [Example 376] : 103

The compound listed as CC(C)CC(c1cccc(NS(=O)(=O)c2cn(C)cn2)c1)c1c(O)c2c(oc1=O)CCCCCC2 (centres unmarked) [Example 427] shows inhibition at 30 µM equal to 81.9

The compound listed as O=C1c2ccccc2C(=O)N1CCS(=O)(=O)Nc1cccc(C(c2c(O)c3c(oc2=O)CCCCCC3)C2CC2)c1 (centres unmarked) [Example 327] shows inhibition at 30 µM equal to 113

The compound listed as O=c1oc2c(c(O)c1C(c1cccc(NS(=O)(=O)c3ccc(F)cc3F)c1)C1CC1)CCCCCC2 (centres unmarked) [Example 279] shows inhibition at 30 µM equal to 94.8
